# Test system: BT-549 breast
# method: NCI-60 one-dose screen, 48 h
# assay.context: 10 µM unless noted
The panel holds about 83,000 compounds, 20% with a hit somewhere; the sample as a whole holds those more often. Active and inactive are the calls of the source. The calls were made as follows: active = growth percent below 10; inactive = the rest.
Field 'call' accepts active, inactive

Would you please look over these solved cases?
compound | class.name
CC/C=C\C[C@H](O)C/C=C1/C(=O)C=C[C@@H]1C/C=C\CCCC(=O)O | inactive
C/C(Cc1ccc(Cl)cc1)=C(\c1ccc(OCCCN(C)C)cc1)c1ccc(OC(=O)Cc2ccccc2)cc1 | inactive
CCN1C(=O)N(CC)C2C1NC(=S)N2/N=C/c1ccc(C(F)(F)F)cc1 (centres undefined) | inactive

Qu. Recorded call for `C/C(=N\O)[C@@H]1CC[C@]2(CO)CC[C@]3(C)[C@H](CC[C@@H]4[C@@]5(C)CCCNC(C)(C)[C@@H]5CC[C@]43C)[C@@H]12` ?
Ans. inactive

Qu. Please answer likewise for `COc1ccc(/C=C/c2ccc3ccccc3n2)c(OC)c1`
Ans. inactive

Qu. Lookup `N#Cc1c(-c2ccccc2)nc(SCc2nnc(-c3ccc(Cl)cc3)o2)[nH]c1=O`
Ans. inactive

###

# Test system: ACHN renal
# method: NCI-60 one-dose screen, 48 h
# assay.context: 10 µM unless noted
This is part of a sample that, as a whole, favours compounds with a hit. Of some 83,000 tested, about 20% had one in any assay. Active and inactive are the calls of the source. The calls were made as follows: active = growth percent below 10; inactive = the rest.
Use one of these outcomes when replying: 1 (yes) = active, 0 (no) = inactive

Solved cases (8 shown):
molecule | class.name
CN1CCN(C(=O)[C@@]2(C)CC[C@]3(C)CC[C@]4(C)C(=CC[C@@H]5[C@@]6(C)CCC(=O)NC(C)(C)[C@@H]6CC[C@]54C)[C@@H]3C2)CC1 | 0 (no)
CN(Cc1cnc2nc(N)nc(N)c2n1)c1ccc(C(=O)NC(CCC(=O)O)C(=O)O)cc1Br (centres undefined) | 0 (no)
O=C(N/N=C/c1cc(Cl)ccc1O)c1ccccc1Nc1ccnc(C(F)(F)F)c1 | 0 (no)
COc1ccc(-c2n[nH]c(=O)c3nc(NC(=S)Nc4ccc(Oc5ccccc5)cc4)sc23)cc1 | 0 (no)
COc1cc(C2C(C(=O)OCc3ccccc3)=C(C)NC(C)=C2C(=O)OCc2ccccc2)cc(OC)c1OC | 0 (no)
Cc1ccc(N2C(=O)CCC2=O)cc1 | 0 (no)
CC1=C2[C@@H](CC1)[C@]1(C)O[C@@](C3CCCCC3)(C[C@H]1OC(=O)CO)[C@H]2OC(=O)/C=C/c1ccccc1 | 1 (yes)
CCOC(=O)c1c(C)nc2ccccc2c1/C=C/c1ccccc1 | 0 (no)

// next entry
Qu. // return assay outcome for CCN1C(=O)N(CC)C2C1NN=c1s/c(=C\c3cnc(C)n3C)c(=O)n12 (centres undefined)
Ans. 0 (no)

###

# Tested on: IGROV1 ovarian
# method: NCI-60 one-dose screen, 48 h (100 = growth as untreated, 0 = no growth, -100 = all killed)
# assay.context: 10 µM unless noted
This is part of a sample that, as a whole, favours compounds with a hit. Of some 83,000 tested, about 20% had one in any assay.
The following compounds are shown together with reported growth values.
Report the value in % with no unit label.

Worked cases, answers included:
entry.smiles | reported.property | observed.value
Cc1c2ccncc2c(C)c2c1c1cc(CO)ccc1n2C | growth | -8.24
S=c1nc2oc(-c3ccccc3)c(-c3ccccc3)c2c(/N=C\c2ccco2)[nH]1 | growth | 101
O=C(N/N=C\c1cccc([N+](=O)[O-])c1)N/N=C/c1cccc([N+](=O)[O-])c1 | growth | 107

Qu. Fill in: growth of `N#CSc1c[nH]c2cccc(/C=C/C(=O)/C=C(O)/C=C/c3cccc4[nH]cc(SC#N)c34)c12` is ___
Ans. -37.4

Qu. Repeat for the following compound: `CN1CCN(CCOc2ccc(-c3cnc4c(-c5ccc(F)cc5)cnn4c3)cc2)CC1`
Ans. 48.2

###

# Test system: OVCAR-5 ovarian
# method: NCI-60 one-dose screen, 48 h (100 = growth as untreated, 0 = no growth, -100 = all killed)
# assay.context: 10 µM unless noted
This is part of a sample that, as a whole, favours compounds with a hit. Of some 83,000 tested, about 20% had one in any assay.
Entries and their growth values follow.
Report the value in % with no unit label.

In the examples that follow, each entry is paired with its recorded growth.
entry.smiles | unit | growth
CN1CCN(Cc2ccc(NC(=O)c3cncc(C#Cc4cnc(N)c5ccc(F)cc45)c3)cc2C(F)(F)F)CC1 | % | 44.7
Cc1ccc(S(=O)(=O)N2CCC(=O)c3ccccc32)cc1 | % | 91
Nc1nc(N)c(N=Nc2ccccc2)c(-c2ccccc2)n1 | % | 56.9

Qu. What does the record list as growth for `Fc1cc(Nc2ccc3c(OCCCN4CCOCC4)cccc3n2)ccc1Cl` ?
Ans. 33.5

Qu. Same read-out for `Cn1c(=O)c2[nH]c(SCC(=O)Nc3ccc(C(=O)/C=C/c4ccccc4Cl)cc3)nc2n(C)c1=O` ?
Ans. 101

###

Examples of molecules with documented growth follow.
# System: SK-MEL-2 melanoma
# method: NCI-60 one-dose screen, 48 h (100 = growth as untreated, 0 = no growth, -100 = all killed)
# assay.context: 10 µM unless noted
Compounds without any hit were thinned out: in the full panel of roughly 83,000, 20% have a hit.
Dear colleague, please return just the value in %, with no unit written.

molecule | unit | growth
CC1=CC(c2ccco2)=C2C(N)=NNC2N1 (stereo not given) | % | 108
CC(=O)c1sc2sc(C(C)=O)c(C)c2c1C | % | 107
COc1ccc(CCN2C(=O)/C(=C/c3ccc(C4Oc5ccccc5C5CC(c6ccccc6)=NN54)cc3)SC2=S)cc1 (stereo not given) | % | 103
CNC1=CC(=O)c2c(C(=O)OC)c(C)[n+]([O-])c(C)c2C1=O | % | 70.7

Next item in the queue.
Qu. What growth value was documented for this molecule, `O=c1c2c3c(sc2n2c(-c4cc(-c5ccccc5)no4)nnc2n1Cc1ccccc1)CCCC3` ?
Ans. 119

###

Attribute: growth
# System: A549/ATCC NSCLC
# method: NCI-60 one-dose screen, 48 h (100 = growth as untreated, 0 = no growth, -100 = all killed)
# assay.context: 10 µM unless noted
Compounds without any hit were thinned out: in the full panel of roughly 83,000, 20% have a hit.
Record the value in %, omitting the unit from your answer.

entry.smiles | unit | growth
COc1ccc2[nH]cc(-c3nc(-c4c[nH]c5c(Cl)nccc45)cs3)c2c1 | % | 28.6
N#Cc1nc(-c2ccccc2)oc1S(=O)(=O)N1CCN(c2ccc(F)cc2)CC1 | % | 101

Qu. Look up growth for this compound: `CN1C(=O)/C(=C/c2ccc(C(=O)Nc3ncc(Cc4cccc(Cl)c4)s3)cc2)SC1=S`
Ans. 56

Qu. Another: `C[C@H](C(=O)N(CCc1ccc(Cl)c(Cl)c1)Cc1cncs1)[C@@H]1CC[C@H](C[C@H](C)n2cc(CN3CCC(c4ccc(Cl)cc4)CC3)nn2)O1`
Ans. 96.3

###

# Test system: NCI-H522 lung
# method: NCI-60 one-dose screen, 48 h (100 = growth as untreated, 0 = no growth, -100 = all killed)
# assay.context: 10 µM unless noted
Compounds without any hit were thinned out: in the full panel of roughly 83,000, 20% have a hit.
Listing: growth of selected compounds
Respond numerically; units are % and should not be typed.

Past entries and their recorded results:
compound | growth / %
O=C(N/N=C\c1ccccc1S(=O)(=O)O)N/N=C/c1ccccc1S(=O)(=O)O | 98.5
CC1(C)CC2=C3C=C[C@@H]4[C@@]5(C)CCC(=O)C(C)(C)[C@@H]5CC[C@@]4(C)[C@]3(C)CC[C@@]2(C(=O)O)C[C@H]1O | 26.4
CCOC(=O)c1nn(CC(O)c2ccccc2)c(NC(=O)Nc2cccc(F)c2)c1C (stereo not drawn) | 84.7
CNC(C)[C@H]1CCC2C3CC=C4C(=O)[C@@H](NC(=O)C=C(C)C)CC[C@]4(C)C3CC[C@@]21C (stereo partly drawn) | 58.5
C=CCOC(=O)C1=C(C)N(CC)C(=O)NC1c1c(Cl)n(C)c2ccccc12 (stereo not drawn) | 85.3

Qu. Report growth for `CC[C@]12C=CCN3CC[C@@]4(c5ccc(OC)cc5N(C)[C@H]4[C@@](O)(C(=O)OC)[C@@H]1OC(=O)CCC[P+](c1ccccc1)(c1ccccc1)c1ccccc1)[C@@H]32` tested on NCI-H522 lung.
Ans. -35.4

Qu. Further, for `CCOc1ccc(-n2nc(C(=O)NCc3ccccc3OC)nc2-c2cc(OC)c(OC)c(OC)c2)cc1` ?
Ans. 35.7

Qu. Item: `CC1(C)CC[C@]2(C(=O)N[C@H](CO)Cc3ccccc3)CC[C@]3(C)C(=CC[C@@H]4[C@@]5(C)CCCNC(C)(C)[C@@H]5CC[C@]43C)[C@@H]2C1`
Ans. 96.8

// provenance: PubChem BioAssay (NCI)
